target system: T1, human MSLN-hFc protein (Acro, Cat. No. MSN-H5253) (human, UniProt Q13421 296-580)
T1 construct: the method names the coated protein as human MSLN-hFc (Acro); also called human MSLN full-length protein
T1 sequence (Q13421 other isoform, or with tags, fused parts or gaps limits assumed): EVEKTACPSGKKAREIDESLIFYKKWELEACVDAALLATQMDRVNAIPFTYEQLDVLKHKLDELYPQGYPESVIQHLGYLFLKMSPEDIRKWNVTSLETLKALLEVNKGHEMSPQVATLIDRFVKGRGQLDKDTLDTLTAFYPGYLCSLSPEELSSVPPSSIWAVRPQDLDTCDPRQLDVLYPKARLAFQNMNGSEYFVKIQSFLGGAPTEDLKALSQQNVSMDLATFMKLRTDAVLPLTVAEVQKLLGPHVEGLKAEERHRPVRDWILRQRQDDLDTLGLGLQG
measurement description: ELISA on coated antigen, antibody 1 nM
Examples of binders with documented OD450 follow.
Please reply with the bare figure in OD450 and do not write the unit itself.

INSERT INTO results (binder, experimental_result) VALUES
  ('F7.44.20-H8 (scFv, not shown: small tags and cut ends, also called S009-F7.44.20 humanized antibody VH1a + VL4) scFv: EVQLVQSGAEVKKPGASVKVSCKASGYTFTDYNMDWVRQAPGQGLEWMGDINPSTGGTIYNQKFQGRVTMTEDKSTSTVYMELSSLRSEDTAVYYCARRRIGTGYFDVWGQGTTVTVSSGGGGSGGGGSGGGGSEIVLTQSPATLSLSPGERATLSCSASSSVISSYLSWYQQKPGSSPRLLIYRTSNLASGIPARFSGSGSGTDYTLTISSLEPEDFAVYYCHQWSSFPYTFGGGTKVEIK', 1.13);

Reported OD450 of F7.44.20-H3 (scFv, not shown: small tags and cut ends, also called S009-F7.44.20 humanized antibody VH1 + VL3) scFv: EVQLVQSGAEVKKPGASVKVSCKASGYTFTDYNMDWVRQAPGQGLEWMGDINPSTGGTIYNQKFNGRVTMTEDKSTSTVYMELSSLRSEDTAVYYCARRRIGTGYFDVWGQGTTVTVSSGGGGSGGGGSGGGGSEIVLTQSPATLSLSPGERATLSCSASSSVISSYLSWYQQKPGQSPRLLIYRTSNLASGIPARFSGSGSGTDYTLTISSLEPEDFAVYYCHQWSSFPYTFGGGTKVEIK : 1.22

Reported OD450 of F7.44.20-H9 (scFv, not shown: small tags and cut ends, also called S009-F7.44.20 humanized antibody VH2 + VL1) scFv: EVQLVQSGAEVKKPGASVKVSCKASGYTFTDYNMDWVRQAPGQGLEWMGDINPSTGGTIYNQKFNGRVTMTEDKSASTVYMELSSLRSEDTAVYYCARRRIGTGYFDVWGQGTTVTVSSGGGGSGGGGSGGGGSEIVLTQSPDFQSVTPKEKVTITCSASSSVISSYLSWYQQKPDQSPKLLIYRTSNLASGVPSRFSGSGSGTDFTLTINSLEAEDAATYYCHQWSSFPYTFGGGTKVEIK : 1.3

Reported OD450 of F7.44.20-H6 (scFv, not shown: small tags and cut ends, also called S009-F7.44.20 humanized antibody VH1a + VL2) scFv: EVQLVQSGAEVKKPGASVKVSCKASGYTFTDYNMDWVRQAPGQGLEWMGDINPSTGGTIYNQKFQGRVTMTEDKSTSTVYMELSSLRSEDTAVYYCARRRIGTGYFDVWGQGTTVTVSSGGGGSGGGGSGGGGSEIVLTQSPDFQSVTPKEKVTITCSASSSVISSYLSWYQQKPDQSPKLLIYRTSNLASGVPSRFSGSGSGTDYTLTINSLEAEDAATYYCHQWSSFPYTFGGGTKVEIK : 1.95

Reported OD450 of F7.44.20-H10 (scFv, not shown: small tags and cut ends, also called S009-F7.44.20 humanized antibody VH2 + VL2) scFv: EVQLVQSGAEVKKPGASVKVSCKASGYTFTDYNMDWVRQAPGQGLEWMGDINPSTGGTIYNQKFNGRVTMTEDKSASTVYMELSSLRSEDTAVYYCARRRIGTGYFDVWGQGTTVTVSSGGGGSGGGGSGGGGSEIVLTQSPDFQSVTPKEKVTITCSASSSVISSYLSWYQQKPDQSPKLLIYRTSNLASGVPSRFSGSGSGTDYTLTINSLEAEDAATYYCHQWSSFPYTFGGGTKVEIK : 1.44
